System: A2780 human ovarian carcinoma cell line
Test: MTT antiproliferative assay, A2780
Type: cell-based
Conditions: 72 h incubation, mean ± SD of three independent experiments, read-out: IC50 (72 h) А2780
pIC50: −log10 of the molar value.

{"columns": ["Compound", "pIC50"],
 "data": [
  ["CC(C)(C)c1ccc([N+]2=Cc3cccc[c]3[Ru-4]234([n+]2ccccc2-c2cccc[n+]23)[n+]2ccccc2-c2cccc[n+]24)cc1.F[P-](F)(F)(F)(F)F", 7.15],
  ["CCOC(=O)c1ccc([N+]2=Cc3scc[c]3[Ru-4]234([n+]2ccccc2-c2cccc[n+]23)[n+]2ccccc2-c2cccc[n+]24)cc1.F[P-](F)(F)(F)(F)F", 7.24],
  ["N.N.[Cl][Pt][Cl] [Cisplatin, reference compound]", 5.58],
  ["F[P-](F)(F)(F)(F)F.Fc1ccc([N+]2=Cc3cccc[c]3[Ru-4]234([n+]2ccccc2-c2cccc[n+]23)[n+]2ccccc2-c2cccc[n+]24)cc1", 7.05],
  ["Cc1ccc([N+]2=Cc3cccc[c]3[Ru-4]234([n+]2ccccc2-c2cccc[n+]23)[n+]2ccccc2-c2cccc[n+]24)cc1.F[P-](F)(F)(F)(F)F", 7.15],
  ["F[P-](F)(F)(F)(F)F.Fc1ccc([N+]2=Cc3scc[c]3[Ru-4]234([n+]2ccccc2-c2cccc[n+]23)[n+]2ccccc2-c2cccc[n+]24)cc1", 7.37]
]}

###

Test system: A2780 human ovarian carcinoma cell line
Test: MTT antiproliferative assay, A2780
Assay type: cell-based
Conditions: 72 h incubation, mean ± SD of three independent experiments, read-out: IC50 (72 h) А2780
pIC50: −log10 of the molar value.
Entry flag: label 1 if pIC50 reaches 7; label 0 if it does not.

{"columns": ["Compound", "Label Class"],
 "data": [
  ["F[P-](F)(F)(F)(F)F.O=[N+]([O-])c1ccc([N+]2=Cc3scc[c]3[Ru-4]234([n+]2ccccc2-c2cccc[n+]23)[n+]2ccccc2-c2cccc[n+]24)cc1 [Compound 3n]", "label 0"],
  ["Cc1ccc([N+]2=Cc3scc[c]3[Ru-4]234([n+]2ccccc2-c2cccc[n+]23)[n+]2ccccc2-c2cccc[n+]24)cc1.F[P-](F)(F)(F)(F)F [Compound 3k]", "label 1"],
  ["COc1ccc([N+]2=Cc3scc[c]3[Ru-4]234([n+]2ccccc2-c2cccc[n+]23)[n+]2ccccc2-c2cccc[n+]24)cc1.F[P-](F)(F)(F)(F)F [Compound 3l]", "label 1"],
  ["F[P-](F)(F)(F)(F)F.O=[N+]([O-])c1ccc([N+]2=Cc3cccc[c]3[Ru-4]234([n+]2ccccc2-c2cccc[n+]23)[n+]2ccccc2-c2cccc[n+]24)cc1 [Compound 3h]", "label 0"]
]}
